Origin of measurements: patent US20180208605A1

- Target: recombinant IRAK-4 kinase (Homo sapiens, UniProt Q9NWZ3)
- Construct: purchased Millipore, USA
- Sequence (Q9NWZ3 1-460): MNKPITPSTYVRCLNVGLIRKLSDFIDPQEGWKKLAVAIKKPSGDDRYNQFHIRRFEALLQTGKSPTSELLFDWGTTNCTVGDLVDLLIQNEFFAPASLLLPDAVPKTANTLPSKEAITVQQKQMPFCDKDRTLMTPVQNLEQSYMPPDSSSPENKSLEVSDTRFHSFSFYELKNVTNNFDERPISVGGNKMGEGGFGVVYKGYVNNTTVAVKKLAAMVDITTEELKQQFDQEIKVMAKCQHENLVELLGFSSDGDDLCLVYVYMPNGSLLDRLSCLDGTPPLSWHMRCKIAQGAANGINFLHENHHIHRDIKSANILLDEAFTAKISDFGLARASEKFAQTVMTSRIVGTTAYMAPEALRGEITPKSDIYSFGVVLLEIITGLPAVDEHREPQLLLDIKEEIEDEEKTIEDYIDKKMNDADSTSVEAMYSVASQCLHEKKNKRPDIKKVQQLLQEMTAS
- Experimental protocol: IRAK-4 Biochemical Assay (TR-FRET, percent inhibition)
- Particulars: read-out: % inhibition of IRAK-4 @0.1 μM, compound at 0.1 μM; TR-FRET, 20 μM ATP, 100 nM Biotin Histone H3
Counter-ions that a name gives are not always drawn.
Attribute measured: inhibition at 0.1 µM (%)

# input Provide only the value of recorded inhibition at 0.1 µM for O=C(Nc1cc2sc(N3CCOCC3)nc2nc1N1CCCCC1)c1cccc(N2CCC(CO)C2)n1 (stereo not shown)
# output 98

# input Provide inhibition at 0.1 µM value for the following compound: COC(=O)C1CN(c2cccc(C(=O)Nc3cc4sc(N5CCOCC5)nc4nc3N3CCCCC3)n2)C(=O)N1 (stereo not shown)
# output 96

# input Tell me its inhibition at 0.1 µM given Nc1ccc(-c2cccc(C(=O)Nc3cc4oc(N5CCOCC5)nc4nc3N3CCOCC3)n2)cn1 [Example 92, hydrochloride] as the entry.
# output 78

# input Please look at this compound and report its inhibition at 0.1 µM: O=C(Nc1cc2sc(N3CCOCC3)nc2nc1N1CCCCC1)c1cncc(N2CC[C@@H](O)C2)n1
# output 93

# input Please list inhibition at 0.1 µM recorded for the compound O=C(Nc1cc2sc(N3CCOCC3)nc2nc1N1CCC[C@@H](O)C1)c1cccc(N2CCCCCC2)n1
# output 83

# input For the compound O=C(Nc1cc2sc(N3CCOCC3)nc2nc1N1CCC(O)(CO)CC1)c1cccc(N2CC[C@H](O)C2)n1 [Example 8, hydrochloride] , report inhibition at 0.1 µM.
# output 97

# input Read the entry Cc1cc(-c2nc(C(=O)Nc3cc4sc(N5CCN(C(=O)CO)CC5)nc4nc3N3CCCCC3)co2)ccn1 [Example 10, hydrochloride] and write its reported inhibition at 0.1 µM.
# output 100

---

- Target: recombinant IRAK-4 kinase (Homo sapiens, UniProt Q9NWZ3)
- Construct: purchased Millipore, USA
- Experimental protocol: IRAK-4 Biochemical Assay (TR-FRET, percent inhibition)
- Particulars: read-out: % inhibition of IRAK-4 @0.1 μM, compound at 0.1 μM; TR-FRET, 20 μM ATP, 100 nM Biotin Histone H3
Where a name gives a salt, the structure may show the parent alone.
Attribute measured: inhibition at 0.1 µM (%)

Study these solved cases before continuing.
# input Assign inhibition at 0.1 µM to the following record: O=C(Nc1cc2sc(N3CCOCC3)nc2nc1C1CC1)c1cnn2ccc(N3CCC(O)CC3)nc12
# output 96

# input Specify inhibition at 0.1 µM for O=C(Nc1cc2sc(N3CCOCC3)nc2nc1N1CCCCC1)c1cc(N2CC[C@H](O)C2)ccn1 and stop.
# output 23

# input Answer with reported inhibition at 0.1 µM of Cc1cc(-c2ccc(C(=O)Nc3cc4sc(N5CCOCC5)nc4nc3N3CCC(O)(CO)CC3)o2)ccn1 [Example 2, hydrochloride]
# output 98

# input Identify measured inhibition at 0.1 µM corresponding to O=C(Nc1cc2sc(N3CCOCC3)nc2nc1N1CCCCC1)c1cccc(N2CCCC(O)C2)n1 (centres unmarked)
# output 94

# input Quote inhibition at 0.1 µM reported for Cc1cc(-c2nc(C(=O)Nc3cc4sc(N5CCOCC5)nc4nc3OC3CCC(N4CCOCC4)CC3)co2)ccn1 (centres unmarked) [Example 6, hydrochloride] please.
# output 100

[P] NC1CCN(c2ccn3ncc(C(=O)Nc4cc5sc(N6CCOCC6)nc5nc4C4CC4)c3n2)CC1 [Example 99, 2,2,2-trifluoroacetate]
[Q] C[C@H](O)Cn1cc(-c2cccc(C(=O)Nc3cc4oc(N5CCOCC5)nc4nc3N3CC[C@@H](O)C3)n2)cn1
# input Which entry has a larger number for inhibition at 0.1 µM, P or Q ? Your choice should be expressed through its label.
# output P

[I] COc1ccc(-c2nc(C(=O)Nc3cc4sc(N5CCOCC5)nc4nc3N3CCCCC3)co2)nc1
[II] Nc1cccc(-c2nc(C(=O)Nc3cc4oc(N5CCOCC5)nc4nc3N3CC[C@@H](O)C3)co2)n1 [Example 87, hydrochloride]
# input Kindly identify which of I and II has the larger recorded inhibition at 0.1 µM value. Write down the label of the entry you select.
# output I
